B1: RHOBTB3 (parent)
chain: STTEGIQLAKELGATYLELHSLDD

- Variants of: B1
- Method: protein stability index of a GFP-peptide fusion (GPS, HEK-293T) (PSI 1-6); higher = more stable;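 further: lentivirally expressed fusions sorted by FACS into six bins by GFP to DsRed ratio, PSI derived from sequencing read proportions per bin multiplied by bin number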
- Protocol Conditions: c terminus: a fixed tail appended
Grouping key: protein stability index. Bins: lower level: < 3; middle level: ≥ 3 and < 4; upper level: ≥ 4

# classify by protein stability index band: Q7G
middle level

# classify by protein stability index band: E18Y
lower level

# classify by protein stability index band: H20Y
lower level

# classify by protein stability index band: T15H
lower level

# classify by protein stability index band: Q7S
upper level

# classify by protein stability index band: L19C
upper level

# classify by protein stability index band: A14Y
middle level

# classify by protein stability index band: Q7E
middle level

# classify by protein stability index band: G13N
lower level
